target: OTU domain-containing protein 3 (Homo sapiens); assay: Validation of screening hits, potency titration, in vitro enzymatic, OTU domain-containing protein 3 DUB inhibitors (AID 1645868); settings: purified OTUD3, ubiquitin-rhodamine cleavage fluorescence, 2 h
Active and inactive are the calls of the source.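 How the source made its calls: active means maximal percent inhibition of the deubiquitinase OTUD3 of at least 30% across the tested doses; inactive means the rest.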
Please reply with one of these outcomes: active, inactive

Observe how each entry below is paired with its result.
molecule | test_target | label_class
Cc1ccc2c(=O)c(C(=O)Nc3ccccc3)cn(CC(=O)NC3CCCCC3)c2n1 | OTU domain-containing protein 3 (Homo sapiens) | inactive
COc1ccccc1C(=O)N1CCC(S(=O)(=O)c2ccc(-c3ccco3)cc2)CC1 | OTU domain-containing protein 3 (Homo sapiens) | inactive

Prompt: In this assay, the call recorded for Cc1cc(NC(=O)COc2ccc3oc4ccccc4c3c2)no1 was what?
Completion: inactive

Prompt: Same question for COc1cccc(NC(=O)Cc2sc(Nc3cc(C)cc(C)c3)nc2O)c1 please.
Completion: active

----------
molecular target: OTU domain-containing protein 3 (Homo sapiens) (UniProt Q5T2D3); assay: Validation of screening hits, potency titration, in vitro enzymatic, OTU domain-containing protein 3 DUB inhibitors (AID 1645868); conditions: purified OTUD3, ubiquitin-rhodamine cleavage fluorescence, 2 h
Sequence (Q5T2D3 whole entry, looked up, the tested form may be a part): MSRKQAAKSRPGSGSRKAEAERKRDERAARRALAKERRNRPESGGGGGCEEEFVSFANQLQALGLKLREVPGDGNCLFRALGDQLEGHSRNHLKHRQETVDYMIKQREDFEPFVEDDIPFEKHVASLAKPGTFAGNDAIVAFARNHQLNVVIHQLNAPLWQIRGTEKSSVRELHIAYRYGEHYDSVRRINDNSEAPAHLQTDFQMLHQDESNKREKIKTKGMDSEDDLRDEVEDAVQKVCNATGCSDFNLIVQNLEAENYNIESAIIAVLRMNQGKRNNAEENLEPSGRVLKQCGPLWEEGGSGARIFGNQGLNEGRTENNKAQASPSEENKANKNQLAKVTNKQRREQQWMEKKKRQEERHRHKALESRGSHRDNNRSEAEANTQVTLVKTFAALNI
The source made the active and inactive calls.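 The calls were made as follows: active = maximal percent inhibition of the deubiquitinase OTUD3 of at least 30% across the tested doses; inactive = the rest.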
measure: IC50

Record excerpt, results attached:
compound | IC50
COc1ccc(-n2c(=O)c(CCC(=O)O)nc3ccccc32)cc1 | > 50 µM (inactive)
CC(C)CCn1c(=O)c2ccccc2n2c(CCC(=O)NC3CCCCCC3)nnc12 | > 50 µM (inactive)
O=C(NCc1ccc2c(c1)OCO2)c1nc(-c2ccccc2)n(-c2ccccc2)n1 | > 50 µM (inactive)
O=C(Nc1cccc(Br)c1)c1cc(-c2cccnc2)n[nH]1 | 10.4 µM
Cc1ncc(CO)c2c1Oc1nc(-c3cccc(Cl)c3)nc(SCC(=O)N3CCCCC3)c1C2 | > 5 µM (inactive)
Cc1nn(-c2cc(N3CCOCC3)ncn2)c(C)c1CCC(=O)Nc1ccc(C(C)C)cc1 | 33.3 µM
O=C1c2c(O)cccc2C2(Oc3cccc4cccc(c34)O2)C2OC12 (stereo not given) | 22.5 µM
O=C(Cn1ccc2ccc(N3CCOCC3)nc21)NCc1ccccc1F | > 50 µM (inactive)

Prompt: Fill in the recorded IC50 for this compound, with OTU domain-containing protein 3 (Homo sapiens) (UniProt Q5T2D3) as test system: Cc1ccc(S(=O)(=O)N2CCC3(CC2)NC(=O)c2ccccc2N3)cc1C
Completion: > 50 µM (inactive)

Prompt: Same question for COc1cccc(NC(=O)c2nnn(-c3ccccc3)n2)c1 please.
Completion: > 50 µM (inactive)

Prompt: Same question for O=C1/C(=C/c2cn(-c3ccccc3)nc2-c2ccc3c(c2)OCCO3)Cc2ccccc21 please.
Completion: > 50 µM (inactive)

Prompt: Same question for CCn1c(=N)n(CCOc2ccc(F)cc2)c2ccccc21 please.
Completion: > 50 µM (inactive)

Prompt: Same question for COc1cc(Cl)c(C)cc1NC(=O)Cn1c(=O)n(CC(=O)NCc2ccco2)c(=O)c2ccccc21 please.
Completion: > 50 µM (inactive)

Prompt: Same question for Cc1nc(N2CCCC2)ncc1C(=O)Nc1ccc(F)c(F)c1 please.
Completion: > 50 µM (inactive)

Prompt: Same question for C=C(NC(=O)C(=C)NC(=O)c1csc(-c2ccc3c(n2)-c2csc(n2)-c2csc(n2)C(C(C)C2CO2)NC(=O)C(Cc2ccc(O)cc2)NC(=O)c2csc(n2)C(C(O)c2ccccc2)NC(=O)c2nc(sc2C)C(CC(N)=O)NC(=O)c2csc-3n2)n1)C(=O)O (stereo not given) please.
Completion: 43.6 µM

Prompt: Same question for Cc1ccc(N=Cc2sc(O)c3ccccc23)c(C)c1 please.
Completion: > 50 µM (inactive)

Values were extracted from PubChem BioAssay AID1645868.
